System: A549 cells (cancer cells)
PROTOCOL NOTES: Lactate assay (luminescence) in A549 cells, candidate substance alone or combined with a substance that causes lactic acidosis
Assay type: cell-based
CONDITION DETAILS: A549; candidate 50 μM + linezolid 200 μM; relative to linezolid alone (PC)
Rule: Lactic acid-decreasing rate vs. PC (%) below 10% gives y, anything at or above gives n.

In: # strict comparison: is reported Lactic acid-decreasing rate vs. PC (%) < 10%? input = N.N.[Cl][Pt][Cl] [CDDP, Cis-diamminedichloridoplatinum]
Out: n

In: # strict comparison: is reported Lactic acid-decreasing rate vs. PC (%) < 10%? input = CC(C)=CCCC(C)=CC=O
Out: y

In: # strict comparison: is reported Lactic acid-decreasing rate vs. PC (%) < 10%? input = Cc1cc2c(C(C)C)c(O)c(O)c(C=O)c2c(O)c1-c1c(C)cc2c(C(C)C)c(O)c(O)c(C=O)c2c1O
Out: n

In: # strict comparison: is reported Lactic acid-decreasing rate vs. PC (%) < 10%? input = CCN(CC)C(=S)SSC(=S)N(CC)CC
Out: n

In: # strict comparison: is reported Lactic acid-decreasing rate vs. PC (%) < 10%? input = CCSC(=O)N1CCCCCC1 [Molinate]
Out: y

In: # strict comparison: is reported Lactic acid-decreasing rate vs. PC (%) < 10%? input = C#CCN(C)Cc1ccccc1
Out: y

In: # strict comparison: is reported Lactic acid-decreasing rate vs. PC (%) < 10%? input = N#CN [Cyanamide]
Out: n

In: # strict comparison: is reported Lactic acid-decreasing rate vs. PC (%) < 10%? input = Nc1c(O)cccc1C(=O)CC(N)C(=O)O (racemic) [3-hydroxy-DL-kynurenine, 3-Hydroxy-DL-kynurenine]
Out: n

In: # strict comparison: is reported Lactic acid-decreasing rate vs. PC (%) < 10%? input = O=CC(=O)c1ccccc1
Out: n

In: # strict comparison: is reported Lactic acid-decreasing rate vs. PC (%) < 10%? input = CCCCNC(=O)n1c(NC(=O)OC)nc2ccccc21
Out: n

In: # strict comparison: is reported Lactic acid-decreasing rate vs. PC (%) < 10%? input = C=C(OP(=O)([O-])O)C(=O)O.O.[Na+]
Out: y

In: # strict comparison: is reported Lactic acid-decreasing rate vs. PC (%) < 10%? input = CCCNC(=O)NS(=O)(=O)c1ccc(Cl)cc1 [Chlorpropamide]
Out: n

In: # strict comparison: is reported Lactic acid-decreasing rate vs. PC (%) < 10%? input = O=C(O)c1cc(=O)c2ccccc2[nH]1
Out: y

In: # strict comparison: is reported Lactic acid-decreasing rate vs. PC (%) < 10%? input = CS(=O)(=O)Nc1ccc(-c2coc3cc(OCc4cccc(C(=O)O)c4)ccc3c2=O)cc1
Out: y

In: # strict comparison: is reported Lactic acid-decreasing rate vs. PC (%) < 10%? input = CCN(CC)c1ccc(C=O)cc1
Out: n

In: # strict comparison: is reported Lactic acid-decreasing rate vs. PC (%) < 10%? input = O=c1c(-c2ccc(O)cc2)coc2cc(O[C@@H]3O[C@H](CO)[C@@H](O)[C@H](O)[C@H]3O)ccc12
Out: n

###

Exercise: for every item that follows, state its recorded Lactic acid-decreasing rate vs. PC (%).
Test system: L132 cells (normal cells)
PROTOCOL NOTES: Lactate assay (luminescence) in L132 cells, candidate substance alone or combined with a substance that causes lactic acidosis
Assay type: cell-based
CONDITION DETAILS: L132; candidate 50 μM + berberine 10 μM; relative to berberine alone (PC)
Give the value in % but do not write % after it.

In: Check L132 cells (normal cells) data and give Lactic acid-decreasing rate vs. PC (%) for C#CCN(C)Cc1ccccc1 .
Out: −1.56

In: Check L132 cells (normal cells) data and give Lactic acid-decreasing rate vs. PC (%) for O=C(O)c1cc(=O)c2ccccc2[nH]1 .
Out: 9.41

In: Check L132 cells (normal cells) data and give Lactic acid-decreasing rate vs. PC (%) for CS(=O)(=O)Nc1ccc(-c2coc3cc(OCc4cccc(C(=O)O)c4)ccc3c2=O)cc1 .
Out: −3.15

In: Check L132 cells (normal cells) data and give Lactic acid-decreasing rate vs. PC (%) for O=CC(=O)c1ccccc1 .
Out: 9.94

In: Check L132 cells (normal cells) data and give Lactic acid-decreasing rate vs. PC (%) for Nc1c(O)cccc1C(=O)CC(N)C(=O)O (racemic) [3-hydroxy-DL-kynurenine, 3-Hydroxy-DL-kynurenine] .
Out: 12.69

In: Check L132 cells (normal cells) data and give Lactic acid-decreasing rate vs. PC (%) for C=C(OP(=O)([O-])O)C(=O)O.O.[Na+] .
Out: 6.95

In: Check L132 cells (normal cells) data and give Lactic acid-decreasing rate vs. PC (%) for N#CN [Cyanamide] .
Out: 0.14

In: Check L132 cells (normal cells) data and give Lactic acid-decreasing rate vs. PC (%) for CCN(CC)C(=S)SSC(=S)N(CC)CC .
Out: 30.84

In: Check L132 cells (normal cells) data and give Lactic acid-decreasing rate vs. PC (%) for O=c1c(-c2ccc(O)cc2)coc2cc(O[C@@H]3O[C@H](CO)[C@@H](O)[C@H](O)[C@H]3O)ccc12 .
Out: 4.06

In: Check L132 cells (normal cells) data and give Lactic acid-decreasing rate vs. PC (%) for CCCNC(=O)NS(=O)(=O)c1ccc(Cl)cc1 [Chlorpropamide] .
Out: −2.38

In: Check L132 cells (normal cells) data and give Lactic acid-decreasing rate vs. PC (%) for N.N.[Cl][Pt][Cl] [CDDP, Cis-diamminedichloridoplatinum] .
Out: 28.58

In: Check L132 cells (normal cells) data and give Lactic acid-decreasing rate vs. PC (%) for Cc1cc2c(C(C)C)c(O)c(O)c(C=O)c2c(O)c1-c1c(C)cc2c(C(C)C)c(O)c(O)c(C=O)c2c1O .
Out: 49.04

In: Check L132 cells (normal cells) data and give Lactic acid-decreasing rate vs. PC (%) for CC(C)=CCCC(C)=CC=O .
Out: −2.03

In: Check L132 cells (normal cells) data and give Lactic acid-decreasing rate vs. PC (%) for CCCCNC(=O)n1c(NC(=O)OC)nc2ccccc21 .
Out: 14.62

In: Check L132 cells (normal cells) data and give Lactic acid-decreasing rate vs. PC (%) for CCSC(=O)N1CCCCCC1 [Molinate] .
Out: −5.04

In: Check L132 cells (normal cells) data and give Lactic acid-decreasing rate vs. PC (%) for CCN(CC)c1ccc(C=O)cc1 .
Out: −6.10
